- Test system: ornithine decarboxylase (ODC), TPA-induced activity
- TEST DETAILS: ODC assay: inhibition of TPA induction of ornithine decarboxylase
- Assay type: biochemical
- CONDITION INFO: concentration of the test compound which causes 80% inhibition in the ODC assay (TPA-induced ODC)
PROPERTY LABEL: IC80 conc (nmols)
Response body: numeric value in nmols, unit text excluded.

Study these solved cases before continuing.
1. CCOC(=O)c1ccc(C#Cc2ccc3c(c2)C(C)(C)CC=C3OC(C)=O)cc1 [Compound 105] | 0.76
2. CCOC(=O)c1ccc(C#Cc2ccc3c(c2)C(OS(=O)(=O)C(F)(F)F)=CCC3(C)C)cc1 [Compound 66] | 17.00
3. CCOC(=O)c1ccc(C#Cc2ccc3c(c2)C(C)(C)CC=C3OS(=O)(=O)C(F)(F)F)cc1 [Compound 87] | 16.80
4. CCOC(=O)c1ccc(C#Cc2ccc3c(c2)C(Sc2ccccc2)=CCC3(C)C)cc1 [Compound 155] | 2.3

Okay, next one:
Ask | Given CCOC(=O)c1ccc(C#Cc2ccc3c(c2)C(OC(C)=O)=CCC3(C)C)cc1 [Compound 126] , respond with its IC80 conc.
Reply | 0.58
